Multiple publications report pIC50 for UniProtKB P18031; what follows is a combined list.
pIC50: −log10 of the molar value.
Threshold check on pIC50: at or above 5 gives true, strictly below gives false.

For orientation, consider the following solved cases.
> print(dat)
                                   molecule      assay.system  class.name
1         CCCCc1oc2ccccc2c1C(=O)c1ccc(O)cc1  UniProtKB P18031       false
2  O=C(O)CCCC(=O)Nc1ccc(C2Nc3cccc4cccc(c34)N2)cc1  UniProtKB P18031        true
3  CC(C)=CCc1cc(CC2OC(=O)C(O)=C2c2ccc(O)cc2)ccc1OCc1ccccc1 (centres unmarked)  UniProtKB P18031       false
4  CC(C)=C1CC=C([C@H]2CC[C@]3(C)[C@@H]2CC[C@@H]2C4=C(CC[C@]23C)C(C)(C)[C@@H]2CC[C@H]4O2)C1=O  UniProtKB P18031       false
5  CCCCC(CC)COC(=O)CC[n+]1ccc2cc(OC)c(C)c(O)c2c1 (centres unmarked)  UniProtKB P18031       false

Input: Does the reported pIC50 for O=C(O)CCCCCNC(=O)c1ccc(C2Nc3cccc4cccc(c34)N2)nc1 fall at or above the 5 mark?
Output: true

###

Multiple publications report pIC50 for UniProtKB P18031; what follows is a combined list.
Scale: pIC50 equals -log10([C]), with [C] in mol/L.

Input: So what's the measured pIC50 for this one? O=C(O)CNC(=O)c1ccc(C2Nc3cccc4cccc(c34)N2)nc1
Output: 6.18

Input: Another compound to check: O=C(O)CCCCCNC(=O)c1ccc(C2Nc3cccc4cccc(c34)N2)cc1
Output: 5.11

Input: Another compound to check: CSc1nc2cc(Cl)c(C(=O)Nc3nc4cc(Oc5cccc(Cl)c5Cl)c(Cl)cc4[nH]3)cc2n1C
Output: 5.12

Input: Another compound to check: O=C(O)C1CCCN1C(=O)c1ccc(C2Nc3cccc4cccc(c34)N2)cc1 (centres unmarked)
Output: 4.69

Input: Another compound to check: O=C(O)c1ccc(C2Nc3cccc4cccc(c34)N2)cc1
Output: 5.08

Input: Another compound to check: O=S(=O)([O-])c1ccc2c(N=Nc3ccc(S(=O)(=O)[O-])c4ccccc34)c(O)c(S(=O)(=O)[O-])cc2c1.[Na+].[Na+].[Na+]
Output: 4.71

###

Multiple publications report IC50 for Tyrosine-protein phosphatase non-receptor type 1 (Homo sapiens, UniProt P18031); what follows is a combined list.

The following molecules have reported results that may help.
> print(dat)
                                   molecule    result
1                CC(=O)c1cc(Br)c(O)c(Br)c1O  > 150 µM
2     O=C(CCCSc1nc2ccccc2s1)Nc1cccc2ccccc12   > 25 µM
3  COc1cc2ccncc2c(O)c1CC(C)C(=O)O (centres unmarked)  > 200 µM
4                     Cc1cc(O)cc(O)c1C(=O)O   > 20 µM

Input: So what's the measured IC50 for this one? COc1ccc(CC(=O)c2ccc(O)cc2O)cc1
Output: > 150 µM
